Tgt: 5 HT2C receptor (Homo sapiens, UniProt P28335)
Sequence (P28335 33-458): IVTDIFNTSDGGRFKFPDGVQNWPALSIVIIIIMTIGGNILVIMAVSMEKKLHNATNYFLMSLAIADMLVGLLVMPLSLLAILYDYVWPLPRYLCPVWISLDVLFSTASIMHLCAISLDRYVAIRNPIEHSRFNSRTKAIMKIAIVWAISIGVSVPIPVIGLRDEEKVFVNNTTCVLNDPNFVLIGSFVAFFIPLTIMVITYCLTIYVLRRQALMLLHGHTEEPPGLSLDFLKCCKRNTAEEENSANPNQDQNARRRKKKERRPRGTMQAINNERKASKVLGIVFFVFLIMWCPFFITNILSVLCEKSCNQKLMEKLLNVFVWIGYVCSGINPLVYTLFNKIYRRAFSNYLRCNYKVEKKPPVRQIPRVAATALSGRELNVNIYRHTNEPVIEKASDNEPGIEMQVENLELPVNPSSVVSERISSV
Can you tell me pIC50 for the items I'm about to list?
Answers are plain numbers, as −log10 of the molar value.

Hi team, please reply with pIC50 for each item in this list.
1. CN1CCN(Cc2cnn(-c3ccc(-c4ccccc4F)cc3)c2-c2ccccc2F)CC1
2. CN1CCN(Cc2cnn(-c3ccc(-c4ccc(F)cc4)cc3)c2-c2ccc(F)cc2)CC1

[6.43, 6.12]
